test: melting temperature; fluorescence melt of hairpins on a sequencing array, two-state fit, raised by 9.35 °C to match UV melts; conditions: sodium 0.088 M
So basically, if Tm comes in under 50 °C it's satisfied, and if it's 50 °C or more it's not satisfied.

GCATTGCGAAAGCATGGC ((..(((....)))..)) | satisfied
GCGGCCGAAAGGCACCGC ((((((....)))..))) | not satisfied

Prompt: Quick check: does GGAATGACGAAAGTCTCC (((..(((....)))))) have Tm under 50 °C?
Completion: satisfied

Prompt: Repeat for the following sequence: GATCAGGACCCTGATC ((((((....))))))
Completion: not satisfied

Prompt: Repeat for the following sequence: GGATCTTCGAAAGAATCC (((..(((....))))))
Completion: satisfied

----------
assay: melting temperature; fluorescence melt of hairpins on a sequencing array, two-state fit, raised by 9.35 °C to match UV melts; conditions: sodium 0.088 M
So basically, if Tm comes in under 50 °C it's T, and if it's 50 °C or more it's F.

Record excerpt, results attached:
GGTCATGGAAACATGGTC (..((((....))))..) | T
GCCTGCACGAAAGTGGGC (((..(((....)))))) | T
GAGCAAGGAAACTTGCCC (.(((((....))))).) | T
GGGGGAGGAAACTCCCTC (.(((((....))))).) | F
GATCATGACAATGATC ((((((....)))))) | F
GCCACCGGAAACGGCAGC ((..(((....)))..)) | T

Prompt: Quick check: does GATCAAATGGTTGATC ((((((....)))))) have Tm under 50 °C?
Completion: T

Prompt: Repeat for the following sequence: GATCCATTAATGGATC ((((((....))))))
Completion: F

Prompt: Repeat for the following sequence: GCCGAGCGAAAGCTAAGC ((..(((....)))..))
Completion: T

Prompt: Repeat for the following sequence: GGAGGCGAAAGCCTATCC ((((((....)))..)))
Completion: T

Prompt: Repeat for the following sequence: GTGTCAGGAAACTGGCAC (((.(((....))).)))
Completion: F

----------
experiment: folding enthalpy; higher = less favourable; fluorescence melt of hairpins on a sequencing array, two-state fit; details: sodium 0.088 M
Parameter threshold = -30 kcal/mol. Response is Satisfied when folding enthalpy meets or exceeds it, else Not satisfied.

GATCTCCACAGAGATC ((((((....)))))) | Not satisfied

Prompt: Check the entry TCCAGGAAACTGGA (((((....))))) : does folding enthalpy equal or exceed -30 kcal/mol?
Completion: Satisfied

Prompt: Repeat for the following sequence: GCCACGCCGAAAGGCGGC (((..(((....))))))
Completion: Satisfied

Prompt: Repeat for the following sequence: GATCCCTCTCGGGATC ((((((....))))))
Completion: Not satisfied

Prompt: Repeat for the following sequence: GCGTACATACGC ((((....))))
Completion: Satisfied

Prompt: Repeat for the following sequence: GTGCTACGAAAGTATCAC (((.(((....))).)))
Completion: Not satisfied

Prompt: Repeat for the following sequence: GCCCGGCGAAAGCGGAGC ((.(.((....)).).))
Completion: Satisfied
